Would you kindly list phosphorylation enrichment for each of these sequences?
- target system: Fes (UniProt P07332)
- Sequence (P07332 whole entry, looked up): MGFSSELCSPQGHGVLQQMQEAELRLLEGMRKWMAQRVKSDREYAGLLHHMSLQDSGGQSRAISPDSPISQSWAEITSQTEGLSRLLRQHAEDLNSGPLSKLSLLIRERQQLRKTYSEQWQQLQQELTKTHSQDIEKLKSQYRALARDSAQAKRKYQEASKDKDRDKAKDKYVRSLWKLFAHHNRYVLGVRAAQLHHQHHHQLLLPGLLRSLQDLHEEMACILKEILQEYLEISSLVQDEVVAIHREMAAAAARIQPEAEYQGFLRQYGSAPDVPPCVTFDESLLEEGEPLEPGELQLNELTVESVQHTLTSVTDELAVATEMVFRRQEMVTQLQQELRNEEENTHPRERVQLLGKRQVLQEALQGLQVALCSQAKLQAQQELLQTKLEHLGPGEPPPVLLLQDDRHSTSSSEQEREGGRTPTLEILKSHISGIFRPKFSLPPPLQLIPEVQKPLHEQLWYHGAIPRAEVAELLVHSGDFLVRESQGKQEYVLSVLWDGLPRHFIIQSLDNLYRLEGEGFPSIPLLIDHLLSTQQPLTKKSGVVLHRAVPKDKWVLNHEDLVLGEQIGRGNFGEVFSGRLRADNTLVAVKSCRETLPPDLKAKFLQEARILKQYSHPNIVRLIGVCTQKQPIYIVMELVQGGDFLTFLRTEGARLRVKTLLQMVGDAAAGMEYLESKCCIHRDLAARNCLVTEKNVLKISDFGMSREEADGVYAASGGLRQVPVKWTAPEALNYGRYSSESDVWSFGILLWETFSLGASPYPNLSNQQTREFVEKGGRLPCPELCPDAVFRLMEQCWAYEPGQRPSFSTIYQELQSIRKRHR
- assay protocol: phosphorylation enrichment, bacterial display (enrichment ratio); higher = better substrate or ligand; peptides without Tyr show the background
One number for each entry.

Below, each entry is followed by its recorded phosphorylation enrichment result.
# chain, target system, phosphorylation enrichment
rows = [
    ("FQASFYRRGDR [LTK_Y677_R673Q_YF]", "Fes (UniProt P07332)", 0.688),
    ("DHAGTYGLGDR [MAPT_Y18]", "Fes (UniProt P07332)", 0.576),
    ("KLCHLYQDHMQ [WNT5A_Y86]", "Fes (UniProt P07332)", 0.881),
]

Please go through the list and note phosphorylation enrichment for each sequence.
1. HLPAGYIIPLQ [GAA_Y822_R819P]
2. ECKASYPGKIT [PRSS3_Y232]
3. RAILNYIASKY [GSTA3_Y74]
4. GLETSYIEDNC [PAH_Y24_Q20L]
5. DDKQPYEKKAA [HMGB1_Y144]
6. DLVLQYLRVPL [F9_Y371_A366D]

1. 0.764
2. 0.596
3. 1.59
4. 0.937
5. 0.947
6. 1.13

---

- target system: Fyn (UniProt P06241)
- Sequence (P06241 whole entry, looked up): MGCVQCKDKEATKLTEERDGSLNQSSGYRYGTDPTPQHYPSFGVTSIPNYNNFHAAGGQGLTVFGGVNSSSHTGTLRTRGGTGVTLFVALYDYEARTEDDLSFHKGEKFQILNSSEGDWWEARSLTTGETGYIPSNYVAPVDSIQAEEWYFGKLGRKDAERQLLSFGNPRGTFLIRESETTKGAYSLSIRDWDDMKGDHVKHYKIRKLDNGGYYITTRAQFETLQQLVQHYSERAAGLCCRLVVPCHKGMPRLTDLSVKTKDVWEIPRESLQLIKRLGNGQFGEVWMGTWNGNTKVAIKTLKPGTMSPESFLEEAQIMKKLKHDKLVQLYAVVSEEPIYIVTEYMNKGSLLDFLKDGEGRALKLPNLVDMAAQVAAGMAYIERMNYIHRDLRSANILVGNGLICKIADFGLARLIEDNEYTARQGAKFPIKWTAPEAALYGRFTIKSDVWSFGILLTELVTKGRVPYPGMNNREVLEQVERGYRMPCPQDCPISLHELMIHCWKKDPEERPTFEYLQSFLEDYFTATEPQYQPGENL
- assay protocol: phosphorylation enrichment, bacterial display (enrichment ratio); higher = better substrate or ligand; peptides without Tyr show the background
Assign class by phosphorylation enrichment: not lower than 0.6 means y; lower than 0.6 means n.

# chain, target system, classification
rows = [
    ("SVVVPYESPEV [TP53_Y220_P222S]", "Fyn (UniProt P06241)", "n"),
    ("KDAGDYKYKAK [LRIT3_Y326_C328Y]", "Fyn (UniProt P06241)", "n"),
    ("EDSEFYRAFEE [CASQ2_Y179_K180R_YF]", "Fyn (UniProt P06241)", "n"),
    ("SDFSRYARTSI [TERT_Y949_S948R_YF]", "Fyn (UniProt P06241)", "n"),
    ("CDKEFYSVHNK [MET_Y1235_Y1230C_YF]", "Fyn (UniProt P06241)", "n"),
    ("QNTGDYYDLYG [PTPN11_Y62]", "Fyn (UniProt P06241)", "y"),
    ("GTYVIYVRFSG [FLNB_Y1687_G1691S]", "Fyn (UniProt P06241)", "n"),
    ("RQSHNYLGGFA [SYK_Y47_R45H]", "Fyn (UniProt P06241)", "n"),
]

Next item in the queue.
Does the sequence SEELHYYVQNH [UQCRC2_Y207_F208Y] have recorded phosphorylation enrichment that is 0.6 or more? y

---

- System: c-Abl (mouse)
- assay protocol: phosphorylation enrichment, bacterial display (enrichment ratio); higher = better substrate or ligand; peptides without Tyr show the background
Assign class by phosphorylation enrichment: not lower than 0.7 means true; lower than 0.7 means false.

# example entries with known answers
# chain, target system, classification
rows = [
    ("CGQDPCIRELG [UROS_Y19_Y19C]", "c-Abl (mouse)", "false"),
    ("SFGESYDNSKS [MAN1B1_Y60_N59S]", "c-Abl (mouse)", "true"),
    ("NAMRRYIEEFQ [MNS1_Y244]", "c-Abl (mouse)", "false"),
    ("DLITAYRAHGF [PDHA1_Y118_H113D]", "c-Abl (mouse)", "false"),
    ("EEAAGCAQESQ [CAMKV_Y491_Y491C]", "c-Abl (mouse)", "true"),
    ("KPGLIYNKVNP [SPRED3_Y72_V71I]", "c-Abl (mouse)", "true"),
    ("YLGEEYVKAVG [TF_Y674]", "c-Abl (mouse)", "false"),
]

Does the sequence ERRLIYASDPK [VPS13D_Y864_T865A] have recorded phosphorylation enrichment that is 0.7 or more? false

---

- target system: c-Src SH2
- assay protocol: SH2 binding enrichment of the phosphorylated peptide, bacterial display (enrichment ratio); higher = better substrate or ligand; peptides without Tyr show the background
assay metric: SH2 binding enrichment

Below, each entry is followed by its recorded SH2 binding enrichment result.
# chain, target system, SH2 binding enrichment
data = [
    ("TCFDKYTGSTF [FN1_Y101_N104S_YF]", "c-Src SH2", 0.82),
    ("ASIVDYNIIGW [MYH7_Y588_G584S]", "c-Src SH2", 0.535),
]

Please go through the list and note SH2 binding enrichment for each sequence.
1. VKANTYENYWP [GATM_Y100_K102N]
2. TDHLRYFDSNK [ARAP1_Y359]
3. NVTRKYTRQIL [MAP3K2_Y463]

1. 3.55
2. 0.507
3. 0.477

---

- Tested on: c-Src
- assay protocol: phosphorylation enrichment, bacterial display (enrichment ratio); higher = better substrate or ligand; peptides without Tyr show the background
assay metric: phosphorylation enrichment

# chain, observed result
measured = [
    ("VRSNHYDPEED [TJP1_Y1346]", 0.445),
    ("GLVFLYMEKNQ [PRELP_Y156]", 0.37),
    ("KLKPIYFHTQG [AR_Y916_V912L]", 0.523),
    ("KAEELYIGVTV [EFHC2_Y509]", 2.2),
    ("VDTLWYKFLKR [EPM2A_Y86_F84L]", 0.366),
]

Please go through the list and note phosphorylation enrichment for each sequence.
1. CTTIHYNYTCN [TP53_Y234_M237T]
2. TLEKYYFAFPG [SLC1A1_Y51_F50Y]
3. YEEDSYSHIMA [FDPS_Y388]
4. PSRKDYETFQP [CTNND2_Y1154_YF]
5. NTVLGYFIGCI [GARS1_Y408_R412C]
6. FNNPAYFVLEG [INPPL1_Y986_YF]

1: 0.414; 2: 6.16; 3: 0.813; 4: 0.737; 5: 0.465; 6: 0.875

Please go through the list and note phosphorylation enrichment for each sequence.
1. LKEIHYPPYTD [ALDH3B2_Y362]
2. PGPQSYPIVTG [PAX5_Y299]
3. ATRDVYNPFET [SCAMP3_Y41_L38R]

0.917
0.4
1.48

---

Would you kindly list SH2 binding enrichment for each of these sequences?
- target system: SHP2-C SH2
- assay protocol: SH2 binding enrichment of the phosphorylated peptide, bacterial display (enrichment ratio); higher = better substrate or ligand; peptides without Tyr show the background

Below, each entry is followed by its recorded SH2 binding enrichment result.
# chain, target system, SH2 binding enrichment
measured = [
    ("KCCCIYEKPRS [PPP1R11_Y64_A69S]", "SHP2-C SH2", 0.685),
    ("PPSGEYFGHCG [TRIP6_Y275_Q278H]", "SHP2-C SH2", 0.713),
    ("FQASFYRRGDR [LTK_Y677_R673Q_YF]", "SHP2-C SH2", 0.38),
]

Please go through the list and note SH2 binding enrichment for each sequence.
1. FKDYFYCWNTF [AICDA_Y146]
2. QDLRLYRPHLA [BTK_Y617_G613D]
3. EYGFRYELVQY [UGGT2_Y1289]
4. PESCLYKESWL [IQGAP2_Y630]
5. PLDGEYFTPQI [TP53_Y327_L330P]

1: 0.662; 2: 0.555; 3: 0.787; 4: 1.06; 5: 0.725

Please go through the list and note SH2 binding enrichment for each sequence.
1. MFCAGYDTKQE [F10_Y407]
2. NLVSEYQQYQD [TUBB3_Y422_D417N]
3. IRKTEYPFSSE [ATP2C1_Y452_A450T]
4. KLCHLYQDHMQ [WNT5A_Y86]
5. KPGLKYVTFGN [GALNTL5_Y404_YF]
6. QIGRKYKKVRF [F8_Y442_R437Q]
7. PSAVAYPKRSQ [MARK3_Y432_V429A]
8. QNTGDYCDLFG [PTPN11_Y62_Y63C_YF]

[0.727, 0.698, 0.807, 1.17, 1.7, 0.622, 0.646, 0.491]

Please go through the list and note SH2 binding enrichment for each sequence.
1. MARDIYQASFF [LTK_Y672_R673Q_YF]
2. PPLMLYNPTTF [EGFR_Y270_YF]
3. CTTIPYNYMCN [TP53_Y234_H233P]

1. 0.678
2. 0.785
3. 1.1

Please go through the list and note SH2 binding enrichment for each sequence.
1. SSAETYSRMRL [NBEAL2_Y1835]
2. IDQDKYAVHFI [FLNA_Y2388_R2391H]
3. LHSEAYLKFIE [PBRM1_Y1610_YF]

1: 0.724; 2: 0.607; 3: 0.881
